// data source = ChEMBL document CHEMBL1155468

Test system: Mus musculus
Test: Teratogenic effect in SWV mouse assessed as resorptions at 148 mg/kg, ip administered on morning of day 8 of gestation
Assay type: toxicity, organism-based
Design: dose 148 mg/kg, route intraperitoneal
Conditions: in vivo

>  <COMPOUND>
CCC(CC)C(=O)Nc1ccc(S(N)(=O)=O)cc1

>  <Activity / %>
7.7

$$$$
>  <COMPOUND>
CCCC(C)C(=O)Nc1ccc(S(N)(=O)=O)cc1 (centres undefined)

>  <Activity / %>
10

$$$$
>  <COMPOUND>
CC(C)(C)CC(=O)Nc1ccc(S(N)(=O)=O)cc1

>  <Activity / %>
8.6

$$$$
>  <COMPOUND>
CCC(C)CC(=O)Nc1ccc(S(N)(=O)=O)cc1 (centres undefined)

>  <Activity / %>
10.6

$$$$

* * *

Let's look at some compounds and their measured Activity.
Test system: Mus musculus
Test: Teratogenic effect in SWV mouse assessed as resorptions at 486 mg/kg, ip administered on morning of day 8 of gestation
Type: toxicity, organism-based
Parameters: dose 486 mg/kg, route intraperitoneal
Conditions: in vivo

>  <COMPOUND>
CCC(CC)C(=O)Nc1ccc(S(N)(=O)=O)cc1

>  <UNIT_ABBREVIATION>
%

>  <Activity>
52.1

$$$$
>  <COMPOUND>
CC(C)(C)CC(=O)Nc1ccc(S(N)(=O)=O)cc1

>  <UNIT_ABBREVIATION>
%

>  <Activity>
8.9

$$$$
>  <COMPOUND>
CCC(C)CC(=O)Nc1ccc(S(N)(=O)=O)cc1 (centres undefined)

>  <UNIT_ABBREVIATION>
%

>  <Activity>
68

$$$$
>  <COMPOUND>
CCCC(C)C(=O)Nc1ccc(S(N)(=O)=O)cc1 (centres undefined)

>  <UNIT_ABBREVIATION>
%

>  <Activity>
58.3

$$$$

* * *

Tested on: Rattus norvegicus
Assay: Anticonvulsant activity in Sprague-Dawley rat assessed as inhibition of maximal electroshock-induced seizures at 30 mg/kg, po after 2 hrs
Calls of active or inactive are those of the source. The rule behind the calls is not given here.
Classes used: 1 (active), -1 (inactive)

>  <COMPOUND>
CCC(CC)C(=O)Nc1ccc(S(N)(=O)=O)cc1

>  <DISCRETE_LABEL>
1

$$$$
>  <COMPOUND>
CC(C)C(C(=O)Nc1ccc(S(N)(=O)=O)cc1)C(C)(C)C (stereo not given)

>  <DISCRETE_LABEL>
-1

$$$$
>  <COMPOUND>
CCC(C)CC(=O)Nc1ccc(S(N)(=O)=O)cc1 (stereo not given)

>  <DISCRETE_LABEL>
1

$$$$
>  <COMPOUND>
CC(C)C(C(=O)Nc1ccc(S(N)(=O)=O)cc1)C(C)C

>  <DISCRETE_LABEL>
-1

$$$$
>  <COMPOUND>
CC(C)(C)CC(=O)Nc1ccc(S(N)(=O)=O)cc1

>  <DISCRETE_LABEL>
1

$$$$

* * *

System: Mus musculus
Test: Neurotoxicity in CF1 albino mouse assessed as motor impairment at 100 mg/kg, ip after 0.5 hrs
Assay type: toxicity, organism-based
Set-up: dose 100 mg/kg, route intraperitoneal
Conditions: in vivo

>  <COMPOUND>
CC(C)(C)C(=O)NCc1ccc(S(N)(=O)=O)cc1

>  <TARGET_ENTITY>
Mus musculus

>  <Activity>
Non-toxic

$$$$
>  <COMPOUND>
CCC(CC(C)C)C(=O)Nc1ccc(S(N)(=O)=O)cc1 (centres undefined)

>  <TARGET_ENTITY>
Mus musculus

>  <Activity>
Non-toxic

$$$$
>  <COMPOUND>
CCCC(CCC)C(=O)O [VALPROIC ACID]

>  <TARGET_ENTITY>
Mus musculus

>  <Activity>
Non-toxic

$$$$
>  <COMPOUND>
CCC(C)C(CC)C(=O)Nc1ccc(S(N)(=O)=O)cc1 (centres undefined)

>  <TARGET_ENTITY>
Mus musculus

>  <Activity>
Non-toxic

$$$$
>  <COMPOUND>
CCCC(CC)C(=O)Nc1ccc(S(N)(=O)=O)cc1 (centres undefined)

>  <TARGET_ENTITY>
Mus musculus

>  <Activity>
Non-toxic

$$$$
>  <COMPOUND>
CC(C)(C)CC(=O)NCc1ccc(S(N)(=O)=O)cc1

>  <TARGET_ENTITY>
Mus musculus

>  <Activity>
Non-toxic

$$$$
>  <COMPOUND>
CCCC(C(=O)Nc1ccc(S(N)(=O)=O)cc1)C(C)(C)C (centres undefined)

>  <TARGET_ENTITY>
Mus musculus

>  <Activity>
Non-toxic

$$$$
>  <COMPOUND>
CCCCC(CC)C(=O)Nc1ccc(S(N)(=O)=O)cc1 (centres undefined)

>  <TARGET_ENTITY>
Mus musculus

>  <Activity>
Non-toxic

$$$$
>  <COMPOUND>
CCCC(C(=O)Nc1ccc(S(N)(=O)=O)cc1)C(C)CC (centres undefined)

>  <TARGET_ENTITY>
Mus musculus

>  <Activity>
Non-toxic

$$$$
